Target or test system: T1, cyBCMA (cynomolgus, UniProt A0A2K5UD97 1-53)
T1 construct: Soluble analyte in SPR; construct not described; also called cyno BCMA
T1 sequence (A0A2K5UD97 entry or part of it): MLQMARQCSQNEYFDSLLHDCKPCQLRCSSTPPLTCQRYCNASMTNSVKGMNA
Method: SPR, immobilised IgG, 37° C
Measure name: T½ (min)
Just the number please, in min, no unit attached.

Use the examples below as a reference point.
Binder | Observed result
L3.PY/H2.HA (antibody, V domains shown, IgG in the assay) VH: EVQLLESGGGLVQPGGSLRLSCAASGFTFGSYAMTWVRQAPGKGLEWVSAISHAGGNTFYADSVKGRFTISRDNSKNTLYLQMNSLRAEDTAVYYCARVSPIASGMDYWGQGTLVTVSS VL: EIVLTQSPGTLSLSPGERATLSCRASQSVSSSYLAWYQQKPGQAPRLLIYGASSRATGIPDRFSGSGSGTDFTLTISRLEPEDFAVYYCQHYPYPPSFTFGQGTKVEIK | 1.53
L3.PY/L3.KF/P6E01 (antibody, V domains shown, IgG in the assay) VH: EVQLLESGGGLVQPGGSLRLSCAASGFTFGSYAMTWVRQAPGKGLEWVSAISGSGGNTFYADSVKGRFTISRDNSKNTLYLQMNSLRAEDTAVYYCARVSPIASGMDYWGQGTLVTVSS VL: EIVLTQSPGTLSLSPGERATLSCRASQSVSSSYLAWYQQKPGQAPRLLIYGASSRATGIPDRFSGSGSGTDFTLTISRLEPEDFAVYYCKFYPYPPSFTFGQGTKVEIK | 1.39

Notebook: L3.PY/L1.AH/H2.DY (antibody, V domains shown, IgG in the assay) VH: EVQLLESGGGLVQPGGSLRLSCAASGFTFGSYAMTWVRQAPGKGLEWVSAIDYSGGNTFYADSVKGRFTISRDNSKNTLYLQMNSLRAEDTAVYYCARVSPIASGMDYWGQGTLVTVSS VL: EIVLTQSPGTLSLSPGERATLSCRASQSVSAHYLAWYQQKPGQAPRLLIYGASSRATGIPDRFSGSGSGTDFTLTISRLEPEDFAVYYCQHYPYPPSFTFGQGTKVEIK , T½ read as 2.56

Value of T½ reported for the binder L3.PY/P6E01 (antibody, V domains shown, IgG in the assay) VH: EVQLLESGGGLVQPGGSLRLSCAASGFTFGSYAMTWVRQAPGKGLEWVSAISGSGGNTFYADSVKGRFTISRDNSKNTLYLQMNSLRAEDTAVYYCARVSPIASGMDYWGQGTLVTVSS VL: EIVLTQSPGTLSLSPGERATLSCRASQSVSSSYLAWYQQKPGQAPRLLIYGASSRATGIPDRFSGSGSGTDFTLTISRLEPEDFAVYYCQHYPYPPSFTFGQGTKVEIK is 0.88

So, L3.PY/L1.FF/P6E01 (antibody, V domains shown, IgG in the assay) VH: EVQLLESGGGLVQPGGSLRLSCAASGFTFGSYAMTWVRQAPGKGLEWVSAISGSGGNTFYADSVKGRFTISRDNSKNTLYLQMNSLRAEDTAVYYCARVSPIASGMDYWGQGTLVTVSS VL: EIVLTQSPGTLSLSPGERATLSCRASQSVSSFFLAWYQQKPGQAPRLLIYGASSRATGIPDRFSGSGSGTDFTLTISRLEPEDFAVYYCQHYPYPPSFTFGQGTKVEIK ? Its T½ was 1.96

Short answer for L3.PY/L1.PS/H2.QR (antibody, V domains shown, IgG in the assay) VH: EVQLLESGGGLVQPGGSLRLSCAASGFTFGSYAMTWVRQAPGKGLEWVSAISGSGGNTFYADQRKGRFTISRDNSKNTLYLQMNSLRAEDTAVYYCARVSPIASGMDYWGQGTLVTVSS VL: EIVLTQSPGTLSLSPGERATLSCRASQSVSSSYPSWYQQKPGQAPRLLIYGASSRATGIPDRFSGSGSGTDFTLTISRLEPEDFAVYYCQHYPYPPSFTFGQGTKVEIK : T½ was 17.2

Recorded result, L3.PY/H2.QL (antibody, V domains shown, IgG in the assay) VH: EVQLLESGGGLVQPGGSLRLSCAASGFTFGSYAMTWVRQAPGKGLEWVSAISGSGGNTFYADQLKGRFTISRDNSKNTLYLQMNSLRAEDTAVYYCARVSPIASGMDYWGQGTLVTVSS VL: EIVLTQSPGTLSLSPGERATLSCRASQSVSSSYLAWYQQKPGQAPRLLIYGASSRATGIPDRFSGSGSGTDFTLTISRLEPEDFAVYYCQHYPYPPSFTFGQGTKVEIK , T½: 0.91

# T½ (binder: L3.PY/L1.PS/H2.DY (antibody, V domains shown, IgG in the assay) VH: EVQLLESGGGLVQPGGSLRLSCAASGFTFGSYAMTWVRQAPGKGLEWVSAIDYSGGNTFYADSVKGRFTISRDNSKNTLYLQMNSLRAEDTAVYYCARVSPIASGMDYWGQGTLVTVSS VL: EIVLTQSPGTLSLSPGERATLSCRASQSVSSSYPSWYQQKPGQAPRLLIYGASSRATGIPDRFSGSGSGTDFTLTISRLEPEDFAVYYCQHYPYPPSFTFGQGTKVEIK ) is 3.06

FYI, the data here is from patent US20240018252A1.
